target: human chemokine receptor CXCR7 (Homo sapiens (Human), UniProt P25106); test: Tango CXCR7-bla U2OS beta-arrestin recruitment assay (beta-lactamase reporter, FRET), antagonism of CXCL12/SDF1-α; assay type: cell-based; conditions: antagonistic effect on CXCR7; Tango CXCR7-bla U2OS cells, CXCL12/SDF1-α at its EC80
Sequence (P25106 whole entry): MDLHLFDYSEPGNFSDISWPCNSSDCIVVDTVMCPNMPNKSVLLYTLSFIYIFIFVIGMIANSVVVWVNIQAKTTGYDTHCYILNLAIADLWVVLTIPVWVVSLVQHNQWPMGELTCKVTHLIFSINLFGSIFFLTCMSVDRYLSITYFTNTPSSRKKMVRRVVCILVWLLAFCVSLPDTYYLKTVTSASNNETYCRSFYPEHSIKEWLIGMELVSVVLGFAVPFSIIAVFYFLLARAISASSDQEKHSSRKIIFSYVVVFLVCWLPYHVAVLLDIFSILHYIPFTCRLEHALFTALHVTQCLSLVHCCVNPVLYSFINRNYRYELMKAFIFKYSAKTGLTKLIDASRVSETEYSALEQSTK
Give measured IC50 for each item. Keep answers brief.
Please give a number only; it is taken to be in nM.

Recorded IC50 of Cn1ccc(CNC(=O)[C@@H]2CN(C3CCCCC3)CC[C@H]2NC(=O)c2cc(-c3ccc(F)cc3F)on2)n1 (racemic) , please.
532

Also, O=C(N[C@H]1CCN(C2CCCC2)C[C@@H]1C(=O)NC1(c2ccccn2)CC1)c1cc(-c2ccc(F)cc2F)on1 please.
32

Also, O=C(N[C@H]1CCN(CC2CC2)C[C@@H]1C(=O)NC1(c2cnccn2)CC1)c1cc(-c2ccc(F)cc2F)on1 please.
50

Also, COCC(C)(C)NC(=O)[C@@H]1CN(C2CCCC2)CC[C@H]1NC(=O)c1cn(-c2ccc(F)cc2F)nn1 (racemic) please.
902

Also, CC(C)(CO)NC(=O)[C@@H]1CN(C2CCCCC2)CC[C@H]1NC(=O)c1cc(-c2ccc(F)cc2F)on1 (racemic) please.
244

Also, CC(C)(NC(=O)[C@H]1CN(CC2CC2)CC[C@@H]1NC(=O)c1cc(-c2ccc(F)cc2F)on1)c1ccccn1 please.
0.3

====

biological target: human chemokine receptor CXCR7 (Homo sapiens (Human), UniProt P25106); assay: Tango CXCR7-bla U2OS beta-arrestin recruitment assay (beta-lactamase reporter, FRET), antagonism of CXCL12/SDF1-α; format: cell-based; settings: antagonistic effect on CXCR7; Tango CXCR7-bla U2OS cells, CXCL12/SDF1-α at its EC80
Give measured IC50 for each item. Keep answers brief.
Please give a number only; it is taken to be in nM.

Recorded IC50 of O=C(N[C@@H]1CCN(C2CCCCC2)C[C@H]1C(=O)NC1(c2ccccn2)CC1)c1cc(-c2c(F)cc(F)cc2F)on1 (racemic) , please.
5

Also, O=C(N[C@H]1CCN(CC2CC2)C[C@@H]1C(=O)N(CCF)Cc1ccccc1)c1cc(-c2ccc(F)cc2F)on1 please.
90

Also, Cc1nc(C(C)(C)NC(=O)[C@H]2CN(CC3CC3)CC[C@@H]2NC(=O)c2cc(-c3ccc(F)cc3F)on2)no1 please.
75

====

biological target: human chemokine receptor CXCR7 (Homo sapiens (Human), UniProt P25106); assay: Tango CXCR7-bla U2OS beta-arrestin recruitment assay (beta-lactamase reporter, FRET), antagonism of CXCL12/SDF1-α; assay type: cell-based; settings: antagonistic effect on CXCR7; Tango CXCR7-bla U2OS cells, CXCL12/SDF1-α at its EC80;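 also: compounds preincubated 15 min before CXCL12 addition, then 22 h at 37 °C, FRET emission ratio read with CCF4-AM substrate after 2 h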
READOUT LABEL: IC50 (µM)
Please give a number only; it is taken to be in µM.

Recorded IC50 of C[C@@H]1CCC[C@H]1N1CC[C@@H](NC(=O)c2cc(-c3ccc(F)cc3F)on2)[C@H](C(=O)N(C)C)C1 [Example 2.023] , please.
0.037

Also, Cc1cc(C)nc(C2(NC(=O)[C@H]3CN(CC4CC4)CC[C@@H]3NC(=O)c3cc(-c4ccc(F)cc4F)on3)CC2)n1 please.
0.009

Also, C[C@@H](NC(=O)[C@@H]1CN(C2CCCCC2)CC[C@H]1NC(=O)c1cc(-c2c(F)cc(F)cc2F)on1)c1cnccn1 (single isomer, unassigned) [Example 1.129b] please.
0.035

Also, CC(C)(C)CN1CC[C@H](NC(=O)c2cc(-c3ccc(F)cc3F)on2)[C@@H](C(=O)NC2(c3ncccn3)CC2)C1 please.
0.006

Also, O=C(N[C@H]1CCN(CC2CC2)C[C@@H]1C(=O)NC1(c2ncccn2)CC1)c1nc(-c2ccc(F)cc2F)co1 please.
0.06

Also, O=C(N[C@H]1CCN(C2CSC2)C[C@@H]1C(=O)NC1(c2ncccn2)CC1)c1cc(-c2ccc(F)cc2F)on1 please.
0.411

Also, O=C(N[C@H]1CCN(CC2CC2)C[C@@H]1C(=O)NC1(c2ccccn2)CC1)c1cc(-c2ccc(F)cc2F)on1 please.
0.004

Also, C[C@@H](NC(=O)[C@@H]1CN(C2CCCC2)CC[C@H]1NC(=O)c1cc(-c2c(F)cc(F)cc2F)on1)C1CCC1 (single isomer, unassigned) [Example 1.138b] please.
0.083

Also, C[C@@H]1CCC[C@H]1N1CC[C@@H](NC(=O)c2cn(-c3ccc(F)cc3F)nn2)[C@H](C(=O)N[C@H](C)c2ccccn2)C1 please.
0.789

Also, Cc1cc(CNC(=O)[C@@H]2CN(C3CCCCC3)CC[C@H]2NC(=O)c2cc(-c3ccc(F)cc3F)on2)n(C)n1 (racemic) please.
0.311

Also, COCC(C)(C)NC(=O)[C@@H]1CN(C2CCCCC2)CC[C@H]1NC(=O)c1noc(-c2ccc(F)cc2F)n1 (racemic) please.
0.569

Also, C[C@@H]1CC[C@H]1N1CC[C@@H](NC(=O)c2cc(-c3ccc(F)cc3F)on2)[C@H](C(=O)N(C)C)C1 [Example 2.016b] please.
0.063

Also, O=C(N[C@@H]1CCN(C2CCC2)C[C@H]1C(=O)NC1(c2cccc(Cl)c2)COC1)c1cc(-c2ccc(F)cc2F)on1 please.
0.201
